Would you mind telling me the reported viability, T/C of each entry?
tested on: 855422-203-R-J1-PDC complex spheroid growth; test: Anticancer human tumor 855422-203-R-J1-PDC patient-derived bladder carcinoma cell line growth inhibition [AhR]; settings: second compound 0.1 µM; first compound 0.316 µM; active compounds read low;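 further: spheroids exposed to agents for seven days before readout; percent of DMSO vehicle control luminescence viability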
Number in %, nothing else.

// query viability, T/C value for entry Nc1ccn(C2OC(CO)C(O)C2(F)F)c(=O)n1 (stereo unspecified) + Cc1cncc(-c2nc(NCCc3c[nH]c4ccccc34)c3ncn(C(C)C)c3n2)c1 15.1

// query viability, T/C value for entry CC(C)c1c(-c2ccccc2)nc2c(C#N)c[nH]n2c1=O + Cc1ccccc1N=Nc1ccc(NC(=O)c2ccnn2C)c(C)c1 94.5

// query viability, T/C value for entry CC1(C)CCC(CN2CCN(c3ccc(C(=O)NS(=O)(=O)c4ccc(NCC5CCOCC5)c([N+](=O)[O-])c4)c(Oc4cnc5[nH]ccc5c4)c3)CC2)=C(c2ccc(Cl)cc2)C1 + CC(CO)NC(=O)c1cc(-c2ccc(Cl)cc2)nn(-c2cnn(C)c2)c1=O 110

// query viability, T/C value for entry CC1(C)CCC(CN2CCN(c3ccc(C(=O)NS(=O)(=O)c4ccc(NCC5CCOCC5)c([N+](=O)[O-])c4)c(Oc4cnc5[nH]ccc5c4)c3)CC2)=C(c2ccc(Cl)cc2)C1 + Cc1cncc(-c2nc(NCCc3c[nH]c4ccccc34)c3ncn(C(C)C)c3n2)c1 98.1

// query viability, T/C value for entry COc1cc(C2c3cc4c(cc3C(OC3OC5COC(C)OC5C(O)C3O)C3COC(=O)C23)OCO4)cc(OC)c1O (stereo unspecified) + CC(CO)NC(=O)c1cc(-c2ccc(Cl)cc2)nn(-c2cnn(C)c2)c1=O 72.9

// query viability, T/C value for entry CC1COCCN1c1cc(C2(S(C)(=N)=O)CC2)nc(-c2ccnc3[nH]ccc23)n1 (stereo unspecified) + Cc1cncc(-c2nc(NCCc3c[nH]c4ccccc34)c3ncn(C(C)C)c3n2)c1 83.1

// query viability, T/C value for entry O=C(c1cc(Cc2n[nH]c(=O)c3ccccc23)ccc1F)N1CCN(C(=O)C2CC2)CC1 + CC(CO)NC(=O)c1cc(-c2ccc(Cl)cc2)nn(-c2cnn(C)c2)c1=O 117

// query viability, T/C value for entry COc1cc(Nc2ncc3c(n2)-c2ccc(Cl)cc2C(c2c(F)cccc2OC)=NC3)ccc1C(=O)O + Cc1ccccc1N=Nc1ccc(NC(=O)c2ccnn2C)c(C)c1 88.9

// query viability, T/C value for entry O=C(C=Cc1cccc(S(=O)(=O)Nc2ccccc2)c1)NO + Cc1ccccc1N=Nc1ccc(NC(=O)c2ccnn2C)c(C)c1 109

// query viability, T/C value for entry Nc1ncn(C2CC(O)C(CO)O2)c(=O)n1 (stereo unspecified) + CC(CO)NC(=O)c1cc(-c2ccc(Cl)cc2)nn(-c2cnn(C)c2)c1=O 73

// query viability, T/C value for entry COc1cc(Nc2ncc3c(n2)-c2ccc(Cl)cc2C(c2c(F)cccc2OC)=NC3)ccc1C(=O)O + Cc1cncc(-c2nc(NCCc3c[nH]c4ccccc34)c3ncn(C(C)C)c3n2)c1 61.5
